biological target: Human SARS Coronavirus Spike S1 Subunit Protein (His Tag) (Sino 40150-V08B1) (Human SARS Coronavirus, UniProt P59594 14-667); experiment: Luminex, supernatant
Hi there, I'd appreciate the recorded MFI for every entry that follows.
The reply should contain only the number, in MFI.

INPUT: Fill blank: measured MFI of the binder mAb10985 (antibody, V domains shown) VH: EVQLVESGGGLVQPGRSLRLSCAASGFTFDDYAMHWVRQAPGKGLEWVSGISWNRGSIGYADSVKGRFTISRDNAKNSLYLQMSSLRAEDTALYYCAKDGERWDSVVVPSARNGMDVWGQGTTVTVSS VL: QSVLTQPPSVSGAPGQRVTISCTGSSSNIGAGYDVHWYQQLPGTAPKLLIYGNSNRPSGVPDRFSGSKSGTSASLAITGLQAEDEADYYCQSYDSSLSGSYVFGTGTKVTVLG is ____.
OUTPUT: 22700

INPUT: # get_value(readout='MFI', item= mAb10984 (antibody, V domains shown) VH: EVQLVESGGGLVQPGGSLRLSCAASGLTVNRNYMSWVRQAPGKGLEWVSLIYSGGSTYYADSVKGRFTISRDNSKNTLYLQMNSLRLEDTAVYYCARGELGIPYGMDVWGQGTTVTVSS VL: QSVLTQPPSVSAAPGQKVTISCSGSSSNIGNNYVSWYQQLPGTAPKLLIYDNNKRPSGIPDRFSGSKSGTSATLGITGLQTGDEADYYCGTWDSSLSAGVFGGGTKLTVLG )
OUTPUT: 22

INPUT: Request the reported MFI associated with mAb10921 (antibody, V domains shown) VH: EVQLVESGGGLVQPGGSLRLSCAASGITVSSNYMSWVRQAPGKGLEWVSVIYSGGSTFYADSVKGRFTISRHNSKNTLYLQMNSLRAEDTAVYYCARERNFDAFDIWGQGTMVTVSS VL: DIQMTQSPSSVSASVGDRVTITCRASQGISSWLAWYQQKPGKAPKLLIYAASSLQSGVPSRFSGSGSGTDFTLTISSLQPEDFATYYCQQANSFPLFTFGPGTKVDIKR
OUTPUT: 19

INPUT: Record request: MFI value, item mAb10913 (antibody, V domains shown) VH: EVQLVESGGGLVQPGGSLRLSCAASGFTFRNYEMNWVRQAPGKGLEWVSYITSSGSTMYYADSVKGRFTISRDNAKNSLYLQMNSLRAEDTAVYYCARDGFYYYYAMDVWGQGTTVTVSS VL: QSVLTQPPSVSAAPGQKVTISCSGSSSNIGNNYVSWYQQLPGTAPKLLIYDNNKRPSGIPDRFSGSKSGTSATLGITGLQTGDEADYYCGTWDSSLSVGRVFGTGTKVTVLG
OUTPUT: 21

INPUT: // MFI lookup, key: mAb10933 (antibody, V domains shown) VH: QVQLVESGGGLVKPGGSLRLSCAASGFTFSDYYMSWIRQAPGKGLEWVSYITYSGSTIYYADSVKGRFTISRDNAKSSLYLQMNSLRAEDTAVYYCARDRGTTMVPFDYWGQGTLVTVSS VL: DIQMTQSPSSLSASVGDRVTITCQASQDITNYLNWYQQKPGKAPKLLIYAASNLETGVPSRFSGSGSGTDFTFTISGLQPEDIATYYCQQYDNLPLTFGGGTKVEIKR
OUTPUT: 18
